From: ChEMBL document CHEMBL3813673

Reported selectivity ratio is given for each of the following compounds.
# protocol description: Selectivity index, ratio of IC50 for mouse J774.1 cells to IC50 for ring-stage Plasmodium falciparum Dd2
# Format: toxicity
# condition parameters: read-out: Ratio IC50

{"chem smiles": "c1ccc2c(NCCCCCNc3c4c(nc5ccccc35)CCCC4)c3c(nc2c1)CCCC3", "selectivity ratio": 3.27}
{"chem smiles": "c1ccc2c(NCCCCCCCCCCNc3c4c(nc5ccccc35)CCCC4)c3c(nc2c1)CCCC3", "selectivity ratio": 12.9}
{"chem smiles": "c1ccc2c(NCCCCCCCNc3c4c(nc5ccccc35)CCCC4)c3c(nc2c1)CCCC3", "selectivity ratio": 8.64}
{"chem smiles": "c1ccc2c(NCCCCCCCCNc3c4c(nc5ccccc35)CCCC4)c3c(nc2c1)CCCC3", "selectivity ratio": 6.33}
